Experiment: Cytotoxicity in MDBK cells (no BVD virus added)
Conditions: bovine, MDBK cells (Madin-Darby bovine kidney), no virus added
Measured Quantity: CC50 at 4 days (µM)
The response must be a number in µM with no trailing unit.

| Record Smiles | Unit String | Observed Value |
| --- | --- | --- |
| COc1ncccc1-c1nc2ccn(Cc3cc(-c4cc(F)ccc4F)no3)cc-2n1 | µM | 100 |

Give reported CC50 at 4 days value for Fc1ccccc1-c1cc2ccn(Cn3nnc4ccccc43)cc-2n1
22

For the compound Fc1ccc(OC(F)(F)F)cc1-c1cc2cn(Cn3nnc4ccccc43)ccc-2n1 , report CC50 at 4 days.
12
